- STUDY_TARGET: Gal(a1-3)GalNAc
- ASSAY_REMARKS: glycan array binding signal (z-score within array); higher = stronger binding
- MEASUREMENT_CONDITIONS: glycan notation: IUPAC condensed, linker removed
The entries come from a sample that favours the strongest signals as a whole.
VALUE_TYPE: glycan array binding signal (z-score)
No unit in the answer, only the number.

| BINDER | glycan array binding signal (z-score) |
| --- | --- |
| SSA (Sclerotinia sclerotiorum), A7XUK7 (protein) MGFKGVGTYEIVPYQAPSLNLNAWEGKLEPGAVVRTYTRGDKPSDNAKWQVALVAGSGDSAEYLIINVHSGYFLTATKENHIVSTPQISPTDPSARWTIKPATTHQYEVFTINNKVSELGQLTVKDYSTHSGADVLSASAKTADNQKWYFDAK | 0.053 |
| SrpA (Streptococcus sanguis) (protein) SSKSESTVNSQSASSETNRSSTNNGSTSSSSETARVRKRRATDTTPPTITVPSDIIAYRGEEFEFYFEITDDSGQVKNIELSTFGKPLGLNWLEYSEDNFNVPGNATSDNPLRVRVHGTVPLNEPIPADKNRAQFTRTIRAWDAAGNVSSNITFVIKYRAQTDKYNPADPTITYVDRLSSLSPSEKNAVEAAVRAANPQIPAAARITVSANGTVTITYPDSSTDTITANRVVKDLASSRSALT | -0.317 |

Moving on to the next binder.
Input: For the binder shown here, AFCNVH (Aspergillus fumigatus) (protein) MSLRGFHTTCDTIVLKDKHILSSRCKRPDGTYSFSEIDLNDCLGNNNGKFVWGGESFVDSASQVNLALEGGEGRPMLHAQLNDWHGSVQSASVNLGECIQNEAGGLEYMHC , give the reported glycan array binding signal (z-score).
Output: -0.37
